Reported pEC50 by item:
target: human EDG8 (S1PR5) receptor (Homo sapiens); construct: carries the transgenes human EDG8 (S1PR5) receptor (Acession number NP_110387.1); assay: Aequorin assay, agonist potency, CHO-A21-EDG8#12 cells; details: agonist mode, aequorin luminescence; read-out: S1P5 EC50 range #
Sequence (Q9H228 whole entry): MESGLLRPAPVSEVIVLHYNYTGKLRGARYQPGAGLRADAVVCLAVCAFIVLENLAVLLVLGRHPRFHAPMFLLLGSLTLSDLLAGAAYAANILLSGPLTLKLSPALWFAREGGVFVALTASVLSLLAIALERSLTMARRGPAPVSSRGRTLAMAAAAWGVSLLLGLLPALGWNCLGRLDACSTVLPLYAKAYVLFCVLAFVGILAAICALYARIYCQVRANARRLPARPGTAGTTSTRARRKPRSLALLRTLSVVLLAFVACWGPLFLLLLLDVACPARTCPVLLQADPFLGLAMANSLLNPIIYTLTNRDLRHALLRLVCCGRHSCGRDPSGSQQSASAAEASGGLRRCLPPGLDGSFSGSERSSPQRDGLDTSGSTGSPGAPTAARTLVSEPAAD
pEC50: −log10 of the molar value. Where a name gives a salt, the structure may show the parent alone.

Example results:
>  <molecule>
COc1cccc(F)c1COc1ccc2c(c1)CC1(C2)CN(CC2(C(=O)O)CC2)C1

>  <test readout>
pEC50

>  <reported measurement>
5.00 to 6.00

$$$$
>  <molecule>
O=C(O)CN1CC2(Cc3ccc(C#Cc4ccc(Cl)cc4)cc3O2)C1

>  <test readout>
pEC50

>  <reported measurement>
5.00 to 6.00

$$$$
>  <molecule>
Cc1ccccc1COc1ccc2c(c1)CC1(C2)CN(CC2(C(=O)O)CC2)C1

>  <test readout>
pEC50

>  <reported measurement>
5.00 to 6.00

$$$$

Query for human EDG8 (S1PR5) receptor (Homo sapiens): what pEC50 does the record show for O=C(O)CN1CC2(Cc3ccc(OCc4c(Cl)cccc4C4CC4)cc3C2)C1 ?
≥ 8.00

Query for human EDG8 (S1PR5) receptor (Homo sapiens): what pEC50 does the record show for O=C(O)C1(CN2CC3(Cc4ccc(OCCc5ccc(F)cc5)cc4C3)C2)CC1 ?
5.00 to 6.00

Query for human EDG8 (S1PR5) receptor (Homo sapiens): what pEC50 does the record show for O=C(O)CN1CC2(Cc3ccc(OCc4cc(F)ccc4C(F)(F)F)cc3C2)C1 ?
≥ 8.00

Query for human EDG8 (S1PR5) receptor (Homo sapiens): what pEC50 does the record show for O=C(O)CN1CC2(Cc3ccc(OCc4cccc5c4OCC5)cc3C2)C1 ?
6.00 to 7.00

Query for human EDG8 (S1PR5) receptor (Homo sapiens): what pEC50 does the record show for CCc1cccc(Cl)c1COc1ccc2c(c1)OC1(C2)CN(CC(C)CC(=O)O)C1 (centres unmarked) ?
≥ 8.00

Query for human EDG8 (S1PR5) receptor (Homo sapiens): what pEC50 does the record show for O=C(O)C1CC(N2CC3(Cc4ccc(OCc5cccc6c5CCC6)cc4C3)C2)C1 (centres unmarked) ?
7.00 to 8.00

Query for human EDG8 (S1PR5) receptor (Homo sapiens): what pEC50 does the record show for CCc1cccc(F)c1COc1ccc2c(c1)CC1(C2)CN(CC(C)CC(=O)O)C1 (centres unmarked) ?
7.00 to 8.00

Query for human EDG8 (S1PR5) receptor (Homo sapiens): what pEC50 does the record show for O=C(O)CN1CC2(Cc3ccc(OCc4cccc5c4CCC5)cc3C2)C1 ?
≥ 8.00

Query for human EDG8 (S1PR5) receptor (Homo sapiens): what pEC50 does the record show for CCOc1ccc(COc2ccc3c(c2)CC2(C3)CN(CC3(C(=O)O)CC3)C2)c(Cl)c1 ?
5.00 to 6.00

Query for human EDG8 (S1PR5) receptor (Homo sapiens): what pEC50 does the record show for CCOc1ccc(C#Cc2ccc3c(c2)CC2(C3)CN(CC3(C(=O)O)CC3)C2)cc1 [Example 1] ?
5.00 to 6.00

Query for human EDG8 (S1PR5) receptor (Homo sapiens): what pEC50 does the record show for O=C(O)C1(CN2CC3(Cc4ccc(OC5CCc6cccc(Cl)c65)cc4C3)C2)CC1 (centres unmarked) ?
≥ 8.00

Query for human EDG8 (S1PR5) receptor (Homo sapiens): what pEC50 does the record show for O=C(O)C1(CN2CC3(Cc4ccc(OCc5cc(Cl)ccc5Cl)cc4C3)C2)CC1 ?
5.00 to 6.00

Query for human EDG8 (S1PR5) receptor (Homo sapiens): what pEC50 does the record show for O=C(O)C1(CN2CC3(Cc4ccc(OCc5ccccc5)cc4C3)C2)CC1 ?
5.00 to 6.00

Query for human EDG8 (S1PR5) receptor (Homo sapiens): what pEC50 does the record show for O=C(O)CCN1CC2(Cc3ccc(OCc4ccccc4)cc3C2)C1 [Example 6, hydrochloride] ?
5.00 to 6.00

Source: patent US20200055817A1
